max response by entry:
# assay-notes: qHTS assay for small molecule agonists of the antioxidant response element (ARE) signaling pathway measured by Nrf2-dependant transcriptional activity - cell viability counter screen (AID 720653); note: % is set by controls: 0 for no effect and ±100 for the full control effect
# condition-context: ARE-bla HepG2 viability, CellTiter-Glo ATP luminescence, 16 h; hits give low values
Records with an inconclusive call do not appear.
experimental-readout: max response (%)

> print(dat)
                                    compound  recorded.number
 1                           Cc1cc(C)cc(N)c1            -5.34
 2                         NC(=O)/N=N/C(N)=O             19.2
 3                 Nc1ccc(Cl)cc1[N+](=O)[O-]            0.225
 4                            C=CC(=O)NC(C)C            -7.91
 5                     O=C(Cl)c1c(Cl)cccc1Cl             10.8
 6                             Cc1cccc(Br)c1             6.53
 7  CC(C)(C)c1ccc(OCC2CO2)cc1 (configuration not stated)             4.81
 8                         OC/C(Br)=C(\Br)CO             1.49
 9                             O=Cc1ccccc1Cl             -4.5
10         O=C1OC(=O)c2cc([N+](=O)[O-])ccc21            -1.02
11                          NC(=O)CCCCC(N)=O            -6.44
12                              O=CNc1ccccc1            -3.88
13                          c1ccc2n[nH]nc2c1             3.37
14                          COc1ccc(N)c(C)c1            -1.87
15                          C=Cc1ccc(C=C)cc1            -7.35
16                           CCNc1cc(O)ccc1C             9.97
17                               CCNc1ccccc1            -0.56

###

# system-under-test: Thyroid hormone receptor beta (Homo sapiens) (UniProt P10828)
# Sequence (P10828 whole entry, looked up): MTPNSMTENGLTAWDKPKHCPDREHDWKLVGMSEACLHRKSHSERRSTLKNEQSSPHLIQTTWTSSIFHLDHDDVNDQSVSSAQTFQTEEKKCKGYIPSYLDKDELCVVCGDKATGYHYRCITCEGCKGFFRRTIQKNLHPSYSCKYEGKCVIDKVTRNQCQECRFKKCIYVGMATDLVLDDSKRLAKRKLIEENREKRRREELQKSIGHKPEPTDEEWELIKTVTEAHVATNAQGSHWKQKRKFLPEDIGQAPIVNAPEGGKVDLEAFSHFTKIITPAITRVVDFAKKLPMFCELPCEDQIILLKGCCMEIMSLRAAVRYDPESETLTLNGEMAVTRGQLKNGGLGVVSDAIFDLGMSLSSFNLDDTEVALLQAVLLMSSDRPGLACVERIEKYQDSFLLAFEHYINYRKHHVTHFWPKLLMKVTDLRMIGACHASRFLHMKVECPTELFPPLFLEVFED
# assay-notes: qHTS assay for small molecule agonists of thyroid hormone receptor beta signaling (AID 588545);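 note: 0% = DMSO only and 100% = 10 nM T3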
# condition-context: TR-UAS-bla GripTite HEK 293, beta-lactamase ratio, agonist mode, 18 h, percent of T3 response, DMSO as zero; series mostly up to 76.7 µM
Results filed as inconclusive are left out. Calls of active or inactive are those of the source. Calls follow the shape of the full dose curve.
experimental-readout: outcome

> print(dat)
                                    compound                         system.under.test  experimental.readout    result
 1                            Cc1ccc(C#N)cc1  Thyroid hormone receptor beta (Homo sapiens) (UniProt P10828)               outcome  inactive
 2     CC1CCC2CC1C2(C)C (stereo unspecified)  Thyroid hormone receptor beta (Homo sapiens) (UniProt P10828)               outcome  inactive
 3                           Cc1cccc2ccccc12  Thyroid hormone receptor beta (Homo sapiens) (UniProt P10828)               outcome  inactive
 4                 O=[N+]([O-])c1ccc(CCO)cc1  Thyroid hormone receptor beta (Homo sapiens) (UniProt P10828)               outcome  inactive
 5  CCCC(Cl)CCCC(Cl)CCC(Cl)CCC(Cl)CCC(Cl)CCCC(Cl)CCC (stereo unspecified)  Thyroid hormone receptor beta (Homo sapiens) (UniProt P10828)               outcome  inactive
 6                            CC(=O)OCCC(C)C  Thyroid hormone receptor beta (Homo sapiens) (UniProt P10828)               outcome  inactive
 7             Cc1cc(C(=O)O)ccc1[N+](=O)[O-]  Thyroid hormone receptor beta (Homo sapiens) (UniProt P10828)               outcome  inactive
 8                                  Cc1ccco1  Thyroid hormone receptor beta (Homo sapiens) (UniProt P10828)               outcome  inactive
 9             Cc1c(C(=O)O)cccc1[N+](=O)[O-]  Thyroid hormone receptor beta (Homo sapiens) (UniProt P10828)               outcome  inactive
10              NC(=O)c1cccc([N+](=O)[O-])c1  Thyroid hormone receptor beta (Homo sapiens) (UniProt P10828)               outcome  inactive
11             O=C(Cl)c1cccc([N+](=O)[O-])c1  Thyroid hormone receptor beta (Homo sapiens) (UniProt P10828)               outcome  inactive
12      COc1ccc(N=[N+]([O-])c2ccc(OC)cc2)cc1  Thyroid hormone receptor beta (Homo sapiens) (UniProt P10828)               outcome  inactive
13                                    C=CCCC  Thyroid hormone receptor beta (Homo sapiens) (UniProt P10828)               outcome  inactive
14                               ON=C1CCCCC1  Thyroid hormone receptor beta (Homo sapiens) (UniProt P10828)               outcome  inactive
15                           CSc1ccc(C=O)cc1  Thyroid hormone receptor beta (Homo sapiens) (UniProt P10828)               outcome  inactive
16                                CCOCC(=O)O  Thyroid hormone receptor beta (Homo sapiens) (UniProt P10828)               outcome  inactive

###

# assay-notes: Cell Viability - LYMP2-009 (AID 968);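 note: cells exposed to compound for 24 h at 37 °C; 0% = DMSO alone and the full-kill end = tetraoctylammonium bromide at 92 µM; nearly all actives have a fitted effect of over 55% in size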
# condition-context: LYMP2-009 lymphoblastoid cell viability; series mostly up to 92.2 µM
Results filed as inconclusive are left out. Calls of active or inactive are those of the source. Calls come from the whole dose curve; as a rule, active = well fitted cell-killing curve with a large enough effect; inconclusive = small, poorly fitted or top-dose-only effect; inactive = flat fitted curve, though single readings scatter.
experimental-readout: outcome

> print(dat)
                                    molecule  experimental.readout    result
 1                    C=C(C)C(=O)OCCCCCCCCCC               outcome  inactive
 2  CC1(N)CCC(C(C)(C)N)CC1 (configuration not stated)               outcome  inactive
 3                               CCNc1ccccc1               outcome  inactive
 4      CCCC(C)CO (configuration not stated)               outcome  inactive
 5             S=C([S-])NCCNC(=S)[S-].[Zn+2]               outcome  inactive
 6                        CC(=O)Nc1ccc(N)cc1               outcome  inactive
 7  CCCCC(CC)COCC1CO1 (configuration not stated)               outcome  inactive
 8                               C=Cc1ccccn1               outcome  inactive
 9  CC(CCl)OC(C)CCl (configuration not stated)               outcome  inactive
10                               CCC(C)(C)OC               outcome  inactive
11                                      CC=O               outcome  inactive
12                       Nc1ccccc1S(=O)(=O)O               outcome  inactive
13                           CSc1ccc(C=O)cc1               outcome  inactive
14                     O=C(Cl)c1c(Cl)cccc1Cl               outcome  inactive
15           CCN(C(=O)N(CC)c1ccccc1)c1ccccc1               outcome  inactive
16  C=C(C)C(=O)OCC(C)O (configuration not stated)               outcome  inactive
17                        C=CCOC(=O)CCCCCCCC               outcome  inactive
